READOUT TYPE: melting point

COMPOUND	melting point
CCCCc1nn(-c2cc(NC(C)=O)ccc2Cl)c(=O)n1Cc1ccc(-c2cc(CCC)ccc2S(=O)(=O)NC(=O)c2ccccc2F)cc1F	148 to 150 °C
Nc1c([N+](=O)[O-])cc(C(F)(F)F)cc1[N+](=O)[O-]	142 to 144 °C
Cc1cc(C2c3cc4c(cc3CC(C)NN2C(=O)NC(C)c2ccccc2)OCO4)ccc1[N+](=O)[O-] (stereo not drawn)	202 to 204 °C
Cc1c(CC(=O)O)c(=O)oc2cc(C3OC(CO)C(O)C(O)C3O)ccc12 (stereo not drawn)	186 to 188 °C
O=C(O)CSC(CCCCNS(=O)(=O)c1ccc(Cl)cc1)CCCc1cccnc1 (stereo not drawn)	78 to 80 °C
CCc1ccc(-c2ncccc2S(=O)(=O)Nc2ncc(C)nc2OC)cc1	73 °C

Tell me the measured melting point of CC(=O)SCCC(=O)N1[C@@H](c2ccccc2O)SC[C@H]1C(=O)N[C@@H](CCC(=O)O)C(=O)O , please.
93 to 98 °C

One more compound: CC(C)(C)c1cc(-c2nn(C3CCOC3=O)c3ncccc23)cc(C(C)(C)C)c1O (stereo not drawn)
164 to 167 °C

---

# maps each entry to its melting point

The examples below pair each entry with its known result.
COMPOUND	melting point
Cc1cc(Nc2cc(C(C)(C)C)c(O)c(C(C)(C)C)c2)n2nccc2n1	251 to 253 °C
CCc1cc2c(Cl)cc(F)c(-n3c(=O)cc(C(F)(F)F)n(C)c3=O)c2o1	142 to 143 °C
CCCCN(CCCC)Cc1cc(C(C)(C)C)cc(C(C)(C)C)c1O	33 to 35 °C
O=P(CCc1ccccc1)(OCc1ccccc1)OCc1ccccc1	48 to 49 °C

Tell me the measured melting point of CC(=O)N(C1=C(NC(C)C)C(=O)c2c(cnn2C)C1=O)C(C)C , please.
123 to 126 °C

One more compound: CCC1(CC)CSc2ccccc2N(c2ccccc2)C1=O
86.4 °C

One more compound: COc1cccc(-c2cc(F)cc3c2OC(CN)C3)c1OC (stereo unspecified)
166 to 167 °C

---

# maps each entry to its melting point

The examples below pair each entry with its known result.
COMPOUND	VALUE MEASURED
COc1ccc2c(c1)Oc1ccc(Cl)cc1NC2	113 to 115 °C
CN(C)Cc1ccnc(CSCCNc2ncc(Cc3ccn(C)c(=O)c3)c(=O)[nH]2)c1	137 to 139 °C
COc1ccccc1Oc1c(NS(=O)(=O)c2ccc(CC(C)C)cc2)nc(-c2ncccn2)nc1OCCOC(N)=O	138 to 140 °C
CC1(c2cccnc2F)OC(=S)N(Nc2ccccc2)C1=O (stereo not given)	130 to 135 °C

Below: the item to evaluate.
Tell me the measured melting point of COc1ccc(-c2nc(C)c(C)s2)cc1 , please.
166 to 170 °C

---

# maps each entry to its melting point

The examples below pair each entry with its known result.
COMPOUND	melting point
CCOC(=O)c1snnc1C	59 to 61 °C
Cc1ccnc2c1C(=O)c1cc([N+](=O)[O-])ccc1-2	225 to 227 °C
Cc1ccnc(C)c1NC(=O)NCCCl	122 to 124 °C
CON=C(C)C(=NOC)C(C)=NOCc1ccccc1CON=CC(=O)OC	105 °C
O=c1c2c(nc3ccc(-c4nnn[nH]4)cn13)CSC2	285 °C

Tell me the measured melting point of Cc1cc2c(cc1Br)N(C1CC1)C=NS2(=O)=O , please.
219 to 220 °C

One more compound: C#CCn1c(=O)sc2cc(F)c(-n3c(=O)cc(C(F)(F)F)[nH]c3=O)cc21
224 to 227 °C

One more compound: CC(=O)N1CCC(NC(=O)Nc2cccc(F)c2)CC1
112 to 114 °C

One more compound: COc1cccc(Cn2cc3c(-c4cccc(C(=O)NCCO)c4)cccc3n2)n1
104 to 105 °C

One more compound: CC1=C(c2ccccc2)C(=O)N(C(C)(C)c2ccccc2)CC1
108 to 109 °C

One more compound: Cn1c(SC(C)(CO)c2ccccc2)cc2ccccc21 (stereo unspecified)
118 to 119 °C

---

# maps each entry to its melting point

The examples below pair each entry with its known result.
STRUCTURE SMILES STRING	melting point
NS(=O)(=O)c1ccc(-n2nc(C(F)(F)F)cc2-c2ccc(-c3cscn3)cc2)cc1	188 to 190 °C
CS(=O)(=O)Oc1ccc(C=O)cc1	61 to 63 °C
CSc1nnc(-c2ccc3occ(-c4ccccc4Cl)c3c2)o1	137 to 138 °C
c1ccc2c(c1)CCc1ccccc1C2=NCC1CC1	98 to 99 °C
O=[N+]([O-])c1cc(N=Nc2ccc(S(=O)(=O)F)cc2)cc(Cl)c1O	129 to 133 °C
O=C(Nc1ccc(-n2nc(C(F)(F)F)cc2C(F)(F)F)cc1)c1ccc(Cl)nc1Cl	115 to 117 °C
Cc1nc2cc(C(F)(F)F)c(Cl)c(N)c2n1N(C)C	173 to 174 °C
Oc1ccc(-c2noc3ccc(O)cc23)cc1	266 to 268 °C

Tell me the measured melting point of CN(C)c1ccc(-c2cc(F)c(F)cc2-c2ccc(S(C)(=O)=O)cc2)cc1Cl , please.
129 to 130 °C

One more molecule: CCOC(=O)n1c2ccccc2c(=O)n1Cc1ccc([N+](=O)[O-])cc1
123 to 124 °C

---

# maps each entry to its melting point

COMPOUND	melting point
COCC(=O)OC1(C(=O)CO)CCC2C3CCC4=CC(=O)CCC4(C)C3C(O)CC21C (stereo not given)	185 °C
O=S(=O)(NCC(O)(Cn1cncn1)c1ccc(Cl)cc1Cl)c1cc(Cl)ccc1Cl (stereo not given)	173 to 174 °C
COC(=O)Cc1ccc(OCCNC(=O)C2Cc3ccccc3N2S(=O)(=O)c2ccc(-c3cccc(C(F)(F)F)c3)cc2)c(OC)c1 (stereo not given)	52 to 60 °C
CCn1cc(C2(c3cccc(-c4cccnc4F)c3)N=C(N)N3CCCN=C32)cn1 (stereo not given)	91 to 115 °C

Tell me the measured melting point of Cn1cnnc1C(CCl)(c1ccc(Cl)cc1)c1ccc2c(c1)c(-c1cccc(Cl)c1)cc(=O)n2C (stereo not given) , please.
260 °C

One more compound: CN1C(=O)COc2c(C(=O)O)cc([N+](=O)[O-])cc21
256 to 259 °C

---

READOUT TYPE: melting point

The examples below pair each entry with its known result.
COMPOUND	VALUE MEASURED
N#CCCN1CCc2c3n(c4ccccc24)C(=O)CCC31 (stereo not given)	156 to 157 °C
Cc1ccc2c3c(ccc2n1)OCC(CN1CC=C(c2cc4ccccc4s2)CC1)O3 (stereo not given)	174 to 176 °C
Cc1ccc2c(c1)Cn1nnnc1C(=S)N2	293 to 296 °C
Cl/C(=C\c1ccc(Br)cc1)c1ccc(Cl)cc1	108 °C
Cc1cccc2c1CCCCC2=O	54 to 55 °C

Tell me the measured melting point of O=c1[nH]c2cc(Br)ccc2c(=O)n1Cc1ccc(I)cc1F , please.
303 to 304 °C

One more compound: CC(=O)Nc1c(C(=O)c2ccoc2)[nH]c2cc(Cl)ccc12
217 to 219 °C

One more compound: CCc1nn(Cc2ccccn2)c2c(=O)[nH]c(-c3cc(S(C)(=O)=O)ccc3OCCOC)nc12
166 to 167 °C

One more compound: Cc1ccc(C(=O)Nc2nc3ccccc3c(=O)n2C)cc1
189 to 191 °C

One more compound: CCOC(=O)C1=C(C)N(C)C(C)=C(C(=O)OCC)C1c1ccc(OC(C)(C)C(=O)OCC)cc1
88 °C

---

READOUT TYPE: melting point

The examples below pair each entry with its known result.
MOLECULE	VALUE MEASURED
Cn1cnc(S(=O)(=O)NCCCN2CCOCC2)c1	148 to 149 °C
CC(=O)NC(=Cc1cccs1)C1=NC(=Cc2ccc([N+](=O)[O-])cc2)C(=O)O1	196 to 197 °C
O=C(NC1CCN(CC(O)COc2cccc3ccccc23)CC1)c1ccccc1 (centres undefined)	139 to 141 °C
COc1cc(C(C)=O)ccc1OCCCCN1CCN(c2n[nH]c3cc(F)ccc23)CC1	156 to 158 °C
CC(C)(C)n1cc(-c2ccc(-c3ccccc3)cc2)c2c(N)ncnc21	212 to 214 °C
CCCCCCCCCCCCCCOc1ccc(CC(=O)Nc2cccc(I)c2)cc1	108 to 110 °C

Tell me the measured melting point of CC(C)Oc1cccc(-n2c(=S)[nH]c3ccccc3c2=O)c1 , please.
288 to 290 °C

One more molecule: CC1CCN(C(=O)C(Cc2cc3c(N)nccc3s2)NS(=O)(=O)c2ccc(COC3CCOCC3)cc2)CC1 (centres undefined)
124 to 128 °C

One more molecule: COCc1nc2c(NCc3c(C)cccc3C)cc(C(=O)N(C)C)cc2n1C
156 to 157 °C

One more molecule: CCCCCS(=O)(=O)NC(=O)CCc1ccc(OCCCOC)cc1Oc1ncc(C(F)(F)F)cc1Cl
115 °C

One more molecule: COC(=O)C(Oc1nc(OC)cc(OC)n1)C(C)(N=[N+]=[N-])c1ccccc1 (centres undefined)
118 to 120 °C

One more molecule: O=C(NOCC(O)CN1CCCCC1)Nc1ccccc1 (centres undefined)
101 to 103 °C

All figures here come from a melting point compilation (Tetko et al.; mined from patent text by program, amines drawn as free bases though some values may be those of a salt).
